These entries and their values trace back to ChEMBL document CHEMBL1122461.

Recorded measurements of Antiviral activity, one per entry
Tested on: Human alphaherpesvirus 1
Assay: Antiviral activity against HSV-1 (Herpes simplex virus)
Type: functional
Express it in mm; write the number only.

What Antiviral activity value was documented for this molecule, CC(=O)C(=C[C@@H]1O[C@H](c2ccccc2)O[C@@H]2CO[C@@H](c3ccccc3)O[C@@H]12)C(C)=O ? 11

Now the same for O=C[C@@H]1O[C@H](c2ccccc2)O[C@@H]2CO[C@@H](c3ccccc3)O[C@@H]12 8

And then CC(=O)/C(=C\[C@@H]1O[C@H](c2ccccc2)O[C@@H]2CO[C@@H](c3ccccc3)O[C@@H]12)C(=O)c1ccccc1 , what is it? 12

Consider next the molecule CC(=O)/C(=C\[C@@H]1O[C@H](c2ccccc2)O[C@H](CC(=O)Oc2ccccc2)[C@H]1C(=O)Oc1ccccc1)C(=O)Nc1ccccc1 in the same way. 2

====

Measured Antiviral activity accompanies every entry in the list below.
System: Human alphaherpesvirus 1
Experiment: Antiviral activity against HSV-1 (Herpes simplex virus)
Assay type: functional
Supply the numeric figure in mm, leaving out any unit text.

Some entries whose results are on file:
In [3]: df
Out[3]:
                                   compound             tested_system  result_number
0  CC(=O)OC(C=C(C(C)=O)C(C)=O)C(OC(=O)c1ccccc1)C(COC(=O)c1ccccc1)OC(C)=O (centres undefined)  Human alphaherpesvirus 1              4
1  CC(=O)OCC(OC(C)=O)C(OC(C)=O)C(C=C(C(C)=O)C(C)=O)OC(C)=O (centres undefined)  Human alphaherpesvirus 1             11
2  CC(=O)OCC(OC(C)=O)C(OC(C)=O)C(OC(C)=O)C(C=C(C(C)=O)C(C)=O)OC(C)=O (centres undefined)  Human alphaherpesvirus 1              1

Let's switch to this compound now.
What measured Antiviral activity goes with O=C1OCC/C1=C\[C@@H]1O[C@H](c2ccccc2)O[C@@H]2CO[C@@H](c3ccccc3)O[C@@H]12 ? 0
